shrunken log2 fold change for assorted sequences
System: Escherichia coli TOP10;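 also: peptides expressed intracellularly from a pBAD plasmid library in pooled LB shake-flask culture, induced with 0.3% L-arabinose, DNA abundance read by NGS, three biological replicates, DESeq2 with apeglm shrinkage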
assayRemarks: shrunken log2 fold change of peptide-encoding DNA abundance (4.5 h post-induction vs induction); higher = less antimicrobial activity (less host growth inhibition)
conditionLabel: time post-induction: 4.5 h; library: site-saturation at positions 5, 18, 19, 20
measure: shrunken log2 fold change

>>> recordedvalue("RRIRLRPPRLPRPRPRPTKNPRP")
0.00698
>>> recordedvalue("RRIRARPPRLPRPRPRPMCIPRP")
0.143
>>> recordedvalue("RRIRKRPPRLPRPRPRPDQMPRP")
-0.0646
>>> recordedvalue("RRIRWRPPRLPRPRPRPMRAPRP")
1.2
>>> recordedvalue("RRIRMRPPRLPRPRPRPLVFPRP")
0.102
>>> recordedvalue("RRIRLRPPRLPRPRPRPTLIPRP")
-0.407
